Taken from patent US9994581B2.

# EC50 listing for each entry below
Tested on: breast cancer cell line MX-1
protocolSummary: MX-1 cell line proliferation assay (3-day, Cell Titer Glo)
Assay type: cell-based
statedConditions: Homo sapiens, MX1, MX-1 cells, 72 hours, read-out: Cellular proliferation: EC50
observedProperty: EC50 (nM)

                                    compound  resultunit  reading
 0  CCS(=O)(=O)Nc1ccc2c(c1)-c1cn(C)c(=O)cc1OCCCCc1ccncc1O2          nM     14.9
 1  CCS(=O)(=O)Nc1cnc2c(c1)-c1cn(C)c(=O)cc1OCCCCc1cc(F)cc(F)c1O2          nM     4.18
 2  CCS(=O)(=O)Nc1cnc2c(c1)-c1cn(C)c(=O)cc1OCCCCc1cc(Cl)ccc1O2          nM     5.68
 3  CCS(=O)(=O)Nc1ccc2c(c1)-c1nn(C)c(=O)cc1OCCCCc1cc(Cl)ccc1O2          nM     14.2
 4  CCS(=O)(=O)Nc1ccc2c(c1)-c1cn(C)c(=O)cc1OCC/C=C/Cc1cc(Cl)ccc1O2          nM     42.4
 5  Cn1cc2c(cc1=O)OCCCCc1cc(F)cc(F)c1Oc1ncc(CS(C)(=O)=O)cc1-2          nM     10.7
 6  Cn1cc2c(cc1=O)OCCOCc1cc(Cl)ccc1Oc1ccc(CS(C)(=O)=O)cc1-2          nM     30.9
 7  CCS(=O)(=O)Nc1ccc2c(c1)-c1cn(C)c(=O)cc1OCCCCc1cccnc1O2          nM     50.7
 8  CCS(=O)(=O)Nc1ccc2c(c1)-c1cn(C)c(=O)cc1OCCN(CCC(F)(F)F)Cc1cc(Cl)ccc1O2          nM     16.8
 9  CCS(=O)(=O)Nc1ccc2c(c1)-c1cn(C)c(=O)cc1OCCCCc1cc(C#N)ccc1O2          nM     3.82
10  CCNC(=O)N1CCOc2cc(=O)n(C)cc2-c2cc(NS(=O)(=O)CC)ccc2Oc2ccc(Cl)cc2C1          nM     47.3
11  CCS(=O)(=O)c1ccc2c(c1)-c1nn(C)c(=O)cc1OCCCCc1cc(C#N)ccc1O2          nM      162
12  CCS(=O)(=O)Nc1ccc2c(c1)-c1cn(C)c(=O)cc1OCCCCc1cc(F)ccc1O2          nM     3.64
13  CCS(=O)(=O)Nc1ccc2c(c1)-c1cn(C)c(=O)cc1OCCCCc1cc(Cl)cnc1O2          nM     26.8
14  CCS(=O)(=O)c1ccc2c(c1)-c1cn(C)c(=O)cc1OCCCCc1cc(Cl)ccc1O2          nM     13.6
15  Cn1cc2c(cc1=O)OCCCCc1cc(OC(F)(F)F)ccc1Oc1ccc(NS(C)(=O)=O)cc1-2          nM     8.77
